Reference source for all entries: patent US9533978B2

Provide the recorded pEC50 for the entries that follow.
STUDY_TARGET: Recombinant human TLR7 (Homo sapiens, UniProt Q9NYK1)
Construct: TLR7 in vector pUNO, blasticidin selection
Sequence (Q9NYK1 27-1049): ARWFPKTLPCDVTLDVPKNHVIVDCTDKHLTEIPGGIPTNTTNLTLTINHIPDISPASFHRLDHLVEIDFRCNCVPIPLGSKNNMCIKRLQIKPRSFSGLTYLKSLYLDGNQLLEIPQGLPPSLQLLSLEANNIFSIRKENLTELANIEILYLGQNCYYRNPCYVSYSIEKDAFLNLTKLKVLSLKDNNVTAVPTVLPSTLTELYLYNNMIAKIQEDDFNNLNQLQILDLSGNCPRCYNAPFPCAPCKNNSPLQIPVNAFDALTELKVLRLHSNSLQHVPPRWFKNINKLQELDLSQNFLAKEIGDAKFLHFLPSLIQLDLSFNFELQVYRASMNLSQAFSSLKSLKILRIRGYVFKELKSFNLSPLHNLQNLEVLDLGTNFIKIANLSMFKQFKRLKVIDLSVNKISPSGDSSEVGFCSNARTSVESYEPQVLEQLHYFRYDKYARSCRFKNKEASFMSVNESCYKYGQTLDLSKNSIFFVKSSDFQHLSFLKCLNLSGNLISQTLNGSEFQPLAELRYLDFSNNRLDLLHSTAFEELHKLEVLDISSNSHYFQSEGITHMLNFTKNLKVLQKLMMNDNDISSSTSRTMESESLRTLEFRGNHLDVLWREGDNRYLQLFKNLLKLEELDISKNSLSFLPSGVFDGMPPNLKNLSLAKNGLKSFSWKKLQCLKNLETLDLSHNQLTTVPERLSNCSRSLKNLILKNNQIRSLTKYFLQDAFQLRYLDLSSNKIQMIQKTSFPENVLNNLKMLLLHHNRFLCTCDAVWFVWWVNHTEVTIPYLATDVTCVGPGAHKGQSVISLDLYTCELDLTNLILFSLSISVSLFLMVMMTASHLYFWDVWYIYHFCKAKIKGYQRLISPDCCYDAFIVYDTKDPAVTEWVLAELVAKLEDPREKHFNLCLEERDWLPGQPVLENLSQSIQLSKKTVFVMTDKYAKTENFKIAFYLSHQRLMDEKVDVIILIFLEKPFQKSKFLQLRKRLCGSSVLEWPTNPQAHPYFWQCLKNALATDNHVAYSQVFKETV
ASSAY_EXPLANATION: Human TLR7 assay (HEK293 SEAP reporter)
ASSAY_CONTEXT: degree of TLR7 activation; SEAP induction in HEK293 cells stably expressing recombinant human TLR7 and pNiFty2-SEAP reporter, overnight incubation at 37° C., 0.1% (v/v) DMSO
Description: The ability of compounds to activate TLR7 in vitro was assessed using the human TLR7 assay described below. Recombinant human TLR7 was stably expressed in a HEK293 cell line already stably expressing the pNiFty2-SEAP reporter plasmid; integration of the reporter gene was maintained by selection with the antibiotic zeocin. […]
Where a name gives a salt, the structure may show the parent alone.
Answers are plain numbers, as −log10 of the molar value.

1. CCCCCNc1nc(N)nc(C)c1Cc1cccc(OCCN(C)C)c1: 6.40
2. CCCCCNc1nc(N)nc(C)c1Cc1ccc(OCCCN2CCCC2)cc1: 7.20
3. CCCCCNc1nc(N)nc(C)c1Cc1ccc(OCCCN2CCN(C)CC2)cc1: 7.10

Next, consider the following compound.
Notebook: CCC[C@@H](CO)Nc1nc(N)nc(C)c1Cc1ccc(C(=O)OCCCCN(C)C)cc1OC [Example 15, benzenesulfonate salt] , pEC50 read as 6.90
